Molecular target: KRAS-G12D protein (Homo sapiens, UniProt P01116, G12D)
Sequence (P01116 1-188 isoform P01116-2 G12D): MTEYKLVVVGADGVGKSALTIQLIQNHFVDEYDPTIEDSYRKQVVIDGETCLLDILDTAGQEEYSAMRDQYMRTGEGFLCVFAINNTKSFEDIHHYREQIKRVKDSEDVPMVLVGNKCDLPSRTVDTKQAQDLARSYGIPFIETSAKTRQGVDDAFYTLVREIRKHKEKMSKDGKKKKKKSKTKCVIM
Test: SOS-mediated nucleotide exchange assay (BODIPY-GDP / Tb-streptavidin TR-FRET)
Assay type: biochemical
*1 amine or outer side, *2 acyl side, *3 side chain or, on linkers, in order; H or OH if unused. Where a SMILES comes first, the peptide text is derived from it. Bridges are numbered along the chain shown (N, C = ends). [ ]: non-standard residue; d: D form. Ala(pyrimidin-5-yl) = N[C@@H](Cc1cncnc1)C(=O)O; Phe(2-F) = N[C@@H](Cc1ccccc1F)C(=O)O; Abu(4,4-F2) = N[C@@H](CC(F)F)C(=O)O; NMe3Pal = CN[C@@H](Cc1cccnc1)C(=O)O; X1 = O=C(C12CC(CN[*:1])(C1)C2)[*:2]; NMeF = CN[C@@H](Cc1ccccc1)C(=O)O; PhLac = O=C(O)[C@@H](O)Cc1ccccc1; 3Pal = N[C@@H](Cc1cccnc1)C(=O)O; AllylGly = C=CC[C@H](N)C(=O)O; Cba = N[C@@H](CC1CCC1)C(=O)O; hLeu = CC(C)CC[C@H](N)C(=O)O; NMeA = CN[C@@H](C)C(=O)O; Nle = CCCC[C@H](N)C(=O)O
Listing: EC50 of selected molecules
ASSAY READOUT: EC50 (nM)

MOLECULE	UNIT SYMBOL	READOUT VALUE
CCCC[C@@H]1NC(=O)[C@@H]2C/C=C\C[C@@H](C(N)=O)NC(=O)[C@H](CSCC(=O)N[C@@H](Cc3ccccc3)C(=O)N[C@@H](CCCNC(=N)N)C(=O)N[C@@H](Cc3cccnc3)C(=O)N[C@@H](CC3CCC3)C(=O)N2)NC(=O)[C@H](Cc2cccnc2)N(C)C1=O [SEQ ID NO: 186] ({CH2CO}-FR[3Pal][Cba][AllylGly][Nle][NMe3Pal]C[AllylGly]-NH2; staple (Z) 5-9; thioether N-8)	nM	7270
CCCC[C@@H]1NC(=O)[C@H](Cc2ccccc2)NC(=O)[C@H](C)N(C)C(=O)[C@H](Cc2ccccc2)OC(=O)C23CC(CNC(=O)[C@H](Cc4ccccc4)N(C)C(=O)[C@H](CCCC)NC(=O)[C@H](Cc4ccccc4F)NC1=O)(C2)C3 [compound 305] (cyclo(F[Nle][Phe(2-F)][Nle][NMeF][X1][PhLac][NMeA]))	nM	1790
CC(C)CC[C@@H]1NC(=O)[C@H](Cc2ccccc2F)NC(=O)[C@H](CC(F)F)NC(=O)[C@H](Cc2cncnc2)NC(=O)[C@H](C)N(C)C(=O)[C@H](Cc2ccccc2)OC(=O)C23CC(CNC(=O)[C@H](Cc4ccccc4)N(C)C1=O)(C2)C3 [compound 304] (cyclo([NMeA][Ala(pyrimidin-5-yl)][Abu(4,4-F2)][Phe(2-F)][hLeu][NMeF][X1][PhLac]))	nM	17.2
